Test system: CCRF-CEM
Assay: NCI tumour cell line growth inhibition, 48 h
Calls of active or inactive are those of the source. Rule as the data show it: active = GI50 up to about 1.1 µM and inactive = higher.
Please answer using one outcome listed in label 1 = active, label 0 = inactive

Use these answered entries as a reference point.
molecule="C=C1C(=O)C23CC1CCC2C12CO[C@@]3(O)[C@@H](O)C1C(C)(C)C=CC2=O (stereo partly drawn)" group_label="label 1"
molecule=NCC(=O)Nc1ccc(Cl)cc1C(=O)c1ccc[nH]1 group_label="label 0"
molecule=CN1C(=O)[C@@]2(C=CC3(CC2)OCCO3)c2ccccc21 group_label="label 0"

-- ask What classification did "CC(=O)NNc1nc(C)c(C(/C=C/c2ccc3c(c2)OCO3)=N/NC(=O)c2ccncc2)s1" end up with in this test?
-- reply label 0

-- ask Similarly, "COc1ccc(Br)c(/C=N\c2cccc3cc(OC)c(OC)cc23)c1" ?
-- reply label 0

-- ask Similarly, Nc1nc(SCCNC(=O)CCc2ccc(O)c(I)c2)nc2c1ncn2C1OC(CO)C(O)C1O (stereo not drawn) ?
-- reply label 0

-- ask Similarly, CCNC1(c2cccc(C)c2)OC(C)(C)c2cccc3cccc1c23 (stereo not drawn) ?
-- reply label 0

-- ask Similarly, "O=C1C(Cl)=C(Cl)C(=O)N1c1ccc(Cl)c(Cl)c1Cl" ?
-- reply label 0

-- ask Similarly, "O=C(Oc1ccccc1)c1cc2cc(CCl)ccc2oc1=O" ?
-- reply label 0

-- ask Similarly, "S=c1c2ccccc2c(=S)n2n1CC=CC2" ?
-- reply label 0

-- ask Similarly, "CCOC(=O)Cn1nnc2ccc(Nc3nc4ccccc4nc3C(=O)OCC)cc21" ?
-- reply label 0

* * *

System: SW-620
Assay: NCI tumour cell line growth inhibition, 48 h
Active and inactive are the calls of the source. No stated cut-off is given here; in the data, active = GI50 up to about 1.1 µM and inactive = higher.
Please answer using one outcome listed in active, inactive

Use these answered entries as a reference point.
compound="OC1CC2CCC(C1)N2CCCN1c2ccccc2Sc2ccc(Cl)cc21 (centres undefined)" group_label=inactive
compound="C=C1C(=O)C23CC1CCC2C12CO[C@@]3(O)[C@@H](O)C1C(C)(C)C=CC2=O (some centres undefined)" group_label=inactive
compound=C/N=c1/ssc(=S)n1C(C)C group_label=inactive

-- ask What classification did "Cc1c(/C=N\NC(=S)N(C)CCN(C)C(=S)N/N=C\c2c(C)n(C)n(-c3ccccc3)c2=O)c(=O)n(-c2ccccc2)n1C" end up with in this test?
-- reply inactive

-- ask Similarly, "c1ccc2/c3[nH]/c(c2c1)=N\c1ccc(cc1)-c1nc2cc(ccc2o1)/N=c1/[nH]/c(c2ccccc12)=N/c1ccc2nc(oc2c1)-c1ccc(cc1)\N=3" ?
-- reply inactive

-- ask Similarly, "COc1cccc(C(=O)Nc2c3ccccc3nc3ccccc23)c1OC" ?
-- reply inactive

-- ask Similarly, "CCN(CC)CCNc1ccc2ncn3c4c(OC)ccc(OC)c4c(=O)c1c23" ?
-- reply active

-- ask Similarly, CCOC(=O)C(NC(=O)CC)(Nc1ccccc1OC)C(F)(F)F (centres undefined) ?
-- reply inactive

-- ask Similarly, "CC(C)(C)CN1[C@@H]2CCCC[C@H]2N(CC(C)(C)C)P1(=O)Cc1ccccc1" ?
-- reply inactive

-- ask Similarly, CC1(C)OCC(C2OC(OC(=O)c3ccc(C(F)(F)F)cc3)C3OC(C)(C)OC23)O1 (centres undefined) ?
-- reply inactive

-- ask Similarly, "O=C(/C=C/c1cc2ccccc2o1)N1CCN(c2ccccn2)CC1" ?
-- reply inactive
